# Target: human Nav1.7 R1599P (rpNav1.7) (Homo sapiens, UniProt Q15858, R1610P)
# Construct: expressed in transfected cells; host or cells: HEK293 cells, transient transfection with pcDNA3.1 construct
# Sequence (Q15858 1-1977 isoform Q15858-3 R1599P): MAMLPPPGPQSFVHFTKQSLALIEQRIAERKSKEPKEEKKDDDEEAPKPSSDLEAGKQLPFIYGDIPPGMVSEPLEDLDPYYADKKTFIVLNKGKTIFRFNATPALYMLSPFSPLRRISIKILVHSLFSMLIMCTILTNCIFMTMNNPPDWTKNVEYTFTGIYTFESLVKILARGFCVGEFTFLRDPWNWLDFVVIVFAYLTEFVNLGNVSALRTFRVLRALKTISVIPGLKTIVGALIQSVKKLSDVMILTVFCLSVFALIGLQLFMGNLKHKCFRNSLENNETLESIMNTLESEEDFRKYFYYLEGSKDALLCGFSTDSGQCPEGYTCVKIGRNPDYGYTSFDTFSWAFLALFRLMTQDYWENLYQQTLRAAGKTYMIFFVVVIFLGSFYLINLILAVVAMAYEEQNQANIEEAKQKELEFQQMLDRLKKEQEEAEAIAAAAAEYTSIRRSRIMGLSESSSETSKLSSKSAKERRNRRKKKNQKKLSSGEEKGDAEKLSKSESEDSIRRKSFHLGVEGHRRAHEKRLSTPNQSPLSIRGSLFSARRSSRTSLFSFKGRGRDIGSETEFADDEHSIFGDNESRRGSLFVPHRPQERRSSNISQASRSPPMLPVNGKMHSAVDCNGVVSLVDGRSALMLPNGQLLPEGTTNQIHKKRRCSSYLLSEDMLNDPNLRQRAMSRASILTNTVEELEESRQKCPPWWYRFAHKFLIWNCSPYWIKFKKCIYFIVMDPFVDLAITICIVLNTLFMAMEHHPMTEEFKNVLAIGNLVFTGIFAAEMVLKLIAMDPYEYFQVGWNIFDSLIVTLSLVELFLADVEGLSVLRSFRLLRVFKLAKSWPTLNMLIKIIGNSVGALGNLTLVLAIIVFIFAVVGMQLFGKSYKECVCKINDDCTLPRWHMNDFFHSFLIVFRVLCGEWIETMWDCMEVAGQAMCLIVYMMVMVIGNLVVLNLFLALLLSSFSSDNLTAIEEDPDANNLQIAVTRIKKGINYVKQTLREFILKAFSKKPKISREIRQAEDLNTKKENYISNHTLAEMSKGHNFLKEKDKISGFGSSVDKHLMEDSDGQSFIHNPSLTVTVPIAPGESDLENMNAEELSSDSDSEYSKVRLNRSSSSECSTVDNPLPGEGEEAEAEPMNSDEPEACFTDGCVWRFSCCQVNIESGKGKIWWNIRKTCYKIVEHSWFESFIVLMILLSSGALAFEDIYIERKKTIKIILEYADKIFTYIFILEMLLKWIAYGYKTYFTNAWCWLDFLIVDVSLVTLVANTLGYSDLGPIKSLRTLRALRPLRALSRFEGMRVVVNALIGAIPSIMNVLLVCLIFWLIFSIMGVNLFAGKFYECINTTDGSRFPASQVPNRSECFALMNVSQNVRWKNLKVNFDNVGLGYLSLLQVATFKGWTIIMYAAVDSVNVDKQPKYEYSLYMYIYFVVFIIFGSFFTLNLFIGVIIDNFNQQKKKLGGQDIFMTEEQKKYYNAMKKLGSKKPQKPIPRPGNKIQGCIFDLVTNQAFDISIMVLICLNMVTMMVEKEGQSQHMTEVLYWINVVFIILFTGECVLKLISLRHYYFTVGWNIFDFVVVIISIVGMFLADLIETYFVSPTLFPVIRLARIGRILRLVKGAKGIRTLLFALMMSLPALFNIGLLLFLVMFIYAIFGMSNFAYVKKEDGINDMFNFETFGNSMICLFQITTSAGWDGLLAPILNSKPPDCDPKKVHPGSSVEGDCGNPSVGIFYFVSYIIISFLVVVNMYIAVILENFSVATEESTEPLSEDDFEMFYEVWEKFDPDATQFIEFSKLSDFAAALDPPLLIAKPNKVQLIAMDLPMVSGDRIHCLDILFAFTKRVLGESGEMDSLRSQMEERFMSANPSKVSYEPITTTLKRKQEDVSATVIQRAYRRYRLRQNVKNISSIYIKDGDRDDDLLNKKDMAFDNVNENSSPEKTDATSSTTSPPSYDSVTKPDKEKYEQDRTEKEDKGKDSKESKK
# Sequence (Q07699 19-218 partner): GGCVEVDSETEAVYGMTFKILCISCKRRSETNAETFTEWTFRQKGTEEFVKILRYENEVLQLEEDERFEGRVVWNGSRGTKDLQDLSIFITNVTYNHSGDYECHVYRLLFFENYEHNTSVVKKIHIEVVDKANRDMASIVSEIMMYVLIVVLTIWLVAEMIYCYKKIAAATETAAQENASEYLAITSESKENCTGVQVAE
# Sequence (O60939 30-215 partner): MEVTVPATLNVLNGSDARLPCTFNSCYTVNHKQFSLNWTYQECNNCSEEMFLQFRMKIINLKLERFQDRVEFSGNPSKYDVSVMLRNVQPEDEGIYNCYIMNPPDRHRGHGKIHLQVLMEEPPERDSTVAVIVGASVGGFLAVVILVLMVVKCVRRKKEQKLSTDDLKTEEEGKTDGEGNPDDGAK
# Method: Resurgent current (INaR), whole-cell patch clamp, rpNav1.7
# Type: cell-based
# Run conditions: rpNav1.7, HEK293; Hill equation; peptide in intracellular solution (10 μM – 1 mM); each data point from 3 to 14 cells; read-out: EC50 for INaR generation
No end group written: not given here.
Property: pEC50
Reminder that pEC50 is minus the log10 of a molar concentration.

Task item: Item KKLITFILKKTREK [Navβ4 peptide] has what recorded pEC50?
Reply: 4.21
